Assay Summary: folding stability dG unfold (combined trypsin and chymotrypsin); higher = more stable
Task for the reader: assign each of the following sequences its reported folding stability dG unfold.

The examples below pair each entry with its known result.
SAGKIEKIVITKKKDGYVIKVYYKDNKKVKTYKAGKTLEEIKKKLEEEGFEIVKVEVKKVKPGEKVEISAGG [r19_386_TrROS_Hall] = 3.06 kcal/mol
SAGGSAGGKITITLPGAEIVSVEESEDGKTITITVRLENGELLKITLKRVNGKWYITKIELLKPSAGGSAGG [r6_718_TrROS_Hall] = 4.34 kcal/mol
SAGGSAGGSAGGPELGEIEPGPDGYLYVNLKVELPVELPGPDGKGTGPVEGTVRLKVGLSAGGSAGGSAGGS [r10_92_TrMRF] = < -1 kcal/mol

Batch lookup, folding stability dG unfold per entry.
1. SAGMIRIIVDGKEVEEIEMSEEELRALLADPNIKKARVFVNGEEKEVEVKEGEIKEKLPPGAVIRIEKSAGG [r19_152_TrROS_Hall]
2. SAGGSAGGSAGGAMREVPIVLPFSPEMSEEEARALIEEELKRKGDPIAKLVIDKKSPALLSAGGSAGGSAGG [r7_703_JUSTAS]
3. SAGGSAGGSMVFESTSVYTFPEQNTVVVTKTTTTVTKTPDGSSSVSTSTTTTVLTVPPPEPLVSAGGSAGGS [r12_277_JUSTAS]
4. SGSSLLSETTEFVELPDDTFATVSTSTYYIPGSGEIVTKTTVTIYPPTGPPVTTTYTSTTTPEGVLVTESSA [r9_856_JUSTAS]
5. SAGGRIHIPIPLNQAREILKKLAPDGRDVTAEPQGPSKDNVYYTIEFEPPKNGNEVDIEIWIPPPGDSAGGS [r16_486_TrROS]
6. SAGGSAGGSAGGSKPEVIKLKVKKIKVKKKKYDKNGKLVEEEEKEITVETTVFVPKEDLSAGGSAGGSAGGS [r4_425_TrROS_Hall]

Reply |
1. 1.79 kcal/mol
2. < -1 kcal/mol
3. 2.85 kcal/mol
4. 3.31 kcal/mol
5. 0.0968 kcal/mol
6. 0.182 kcal/mol

---

I'd appreciate it if you could supply folding stability dG unfold values for the items below.
Assay Summary: folding stability dG unfold from chymotrypsin proteolysis; higher = more stable
One number for each entry, in kcal/mol.

// worked examples, folding stability dG unfold included
KIKELAKKLGLNVTVKVEKKPIKNPDGSTYTITKVEVTVDKKNKTITIKVEVKNKKTNKTITKTYTIKLKKS [r1_448_TrROS_Hall] = 2.26
GEERTFSLWVKTKSPQEARQLQEKIKDILRGPGYEVKIDDVEVSPNGWMKVNITMRPGMPQDRLRDALRKIS [r1_485_TrROS] = 5.24
SAGGSAEKKVLKVKVEVVSVEVNEDGTVTVTAKVTFEDGLELTVTVTFDKETGELTIEVELRPLPPSAGGSA [r15_401_TrROS_Hall] = 3.48

Lab note: each sequence below needs its folding stability dG unfold filled in.
1. SAGGSKPILKIKITIYRIDKNGKLIKKIELTLPPLTEEQLKKLLEALKKLPKDVKIVEVKIELVEPSAGGSA [r2_75_TrROS_Hall]
2. SAGMPSFTTTSAPTEQLPELLAELATRPPNVSYTFPLPDPSRSLSLSVSADRITLTDPATGTTTTLPASAGG [r19_154_JUSTAS]
3. SLGPLVELAELFPDFEPLGVEEEPLEDGGRLLRVIGRIPEIGAYLLIEVRLPPGGGIESIRAEWVPEDELSA [r9_274_TrMRF]

Reply |
1: 4.54; 2: -1.12; 3: 4.28

Ask | Bench note: what folding stability dG unfold did SSTPKLEEIERPNARFKVTTYTYPNSVKTTADATFPDGTKGKIEETYTPTPEGVKKTVKKDLPPEVKEKLES [r1_153_JUSTAS] show?
Reply | 0.0664
